- Tested on: MKN1 cells, pERK
- measurement-description: Inhibition of KRas phosphorylation of ERK (Cisbio HTRF Advanced pERK assay)
- Format: cell-based
- setup-conditions: Homo sapiens, MKN-1, 3 h, read-out: Inhibition (HTRF IC50 nM) of KRas-mediated Phosphorylation of ERK, MKN1
- Protocol: Inhibition of KRas Phosphorylation of ERK (HTRF) by Exemplary Compounds of Formula (I) Cisbio HTRF Advanced pERK Assay Catalog #64AERPEH • Day 1: Seed 6,000 cells/well −25 μl/well in 384-well white solid bottom plate; RPM1_10% FBS. […] To harvest cells from flask using 0.05% Trypsin/EDTA solution. Add 10 mL of media to stop trypsinizing. […] At the end of incubation, read plate on the Envision after centrifuging plate 30 sec×1000 rpm.
Exercise: state measured IC50 for each of the compounds provided.
One number for each entry, in nM.

Example entries and their recorded answers appear below.
compound	unit-abbrev	IC50
CCc1c(F)ccc2cc(O)cc(N3CCc4c(nc(OC[C@@]56CCCN5C[C@H](F)C6)nc4N4CCCc5nn(C(=O)NC(C)C)cc5C4)C3)c12	nM	1520
CCc1c(F)ccc2cc(O)cc(N3CCc4c(nc(OC[C@@]56CCCN5C[C@H](F)C6)nc4N4CCCC5(CC(=O)N5)C4)C3)c12 (stereo partly shown)	nM	9
CCc1c(F)ccc2cc(O)cc(N3CCc4c(nc(OC[C@@]56CCCN5C[C@H](F)C6)nc4NCc4ccc5nncn5c4)C3)c12	nM	637

Could you now look at the following compound, please?
# IC50 of Oc1cc(N2CCc3c(nc(OC[C@@]45CCCN4C[C@H](F)C5)nc3N3CC4CC(O)C(C4)C3)C2)c2c(Cl)c(F)ccc2c1 (stereo partly shown) = 524

----------
- measurement-target: KRas^G12C (Homo sapiens, UniProt P01116, G12C)
- Sequence (P01116 1-169 isoform P01116-2 G12C): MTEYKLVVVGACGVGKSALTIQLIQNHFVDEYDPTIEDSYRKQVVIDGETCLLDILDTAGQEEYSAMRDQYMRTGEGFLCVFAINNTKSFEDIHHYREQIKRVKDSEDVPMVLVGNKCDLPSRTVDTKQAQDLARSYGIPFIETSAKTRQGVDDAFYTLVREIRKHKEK
- measurement-description: biochemical
reported-metric: IC50

Example entries and their recorded answers appear below.
molecule	reported-metric	result
CCc1cccc2cccc(N3CCc4c(nc(OCC56CCCN5CCC6)nc4N(C)CC(C)(C)O)C3)c12 [Example 113]	IC50	418 nM
CCc1cccc2cccc(N3CCc4c(nc(OCC56CCCN5CCC6)nc4N4CCCC(c5n[nH]c(C6CC6)n5)C4)C3)c12 (centres unmarked) [Example 108]	IC50	485 nM
CCc1cccc2cccc(N3CCc4c(nc(OCC56CCCN5CCC6)nc4N4CCCC(P(C)(C)=O)C4)C3)c12 (centres unmarked) [Example 112]	IC50	1570 nM
CCc1cccc2cccc(N3CCc4c(nc(OCC56CCCN5CCC6)nc4N4CCCC(c5ccn(C)n5)C4)C3)c12 (centres unmarked) [Example 100]	IC50	828 nM
CCc1cccc2cccc(N3CCc4c(nc(OCC56CCCN5CCC6)nc4N4CCCC(O)CC4)C3)c12 (centres unmarked) [Example 7]	IC50	89 nM

Provide the reported IC50 of each entry below, same order.
1. CCc1cccc2cccc(N3CCc4c(nc(OCC56CCCN5CCC6)nc4N4CCCC(CO)CC4)C3)c12 (centres unmarked) [Example 107]
2. CCc1cccc2cccc(N3CCc4c(nc(OCC56CCCN5CCC6)nc4N4CCCC(N5CCCC5=O)C4)C3)c12 (centres unmarked) [Example 137]
3. CCc1c(F)ccc2cc(O)cc(N3CCc4c(nc(OC[C@@]56CCCN5C[C@H](F)C6)nc4N4CCCC(c5ncn[nH]5)C4)C3)c12 (some centres unmarked) [Example 19]
4. CCc1cccc2cccc(N3CCc4c(nc(OCC56CCCN5CCC6)nc4N4CCCC(n5cccn5)C4)C3)c12 (centres unmarked) [Example 82]

Response line:
1: 487 nM; 2: 1030 nM; 3: 5 nM; 4: 475 nM

----------
- measurement-target: KRas^G12V (Homo sapiens, UniProt P01116, G12V)
- Construct: […]; biotin (biotinylated)
- Sequence (P01116 1-169 isoform P01116-2 G12V): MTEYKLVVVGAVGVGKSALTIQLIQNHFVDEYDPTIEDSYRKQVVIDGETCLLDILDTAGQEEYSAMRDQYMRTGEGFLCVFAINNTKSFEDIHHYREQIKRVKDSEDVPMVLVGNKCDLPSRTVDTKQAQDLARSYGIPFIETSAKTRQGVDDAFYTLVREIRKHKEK
- measurement-description: KRas binding assay (TR-FRET displacement of Cy5 labelled tracer)
reported-metric: pIC50
One number for each entry, as −log10 of the molar value.

Example entries and their recorded answers appear below.
compound	pIC50
O=C1NC(=O)C2CN(c3nc(OCC45CCCN4CCC5)nc4c3CCN(c3cccc5cccc(Cl)c35)C4)CC12 (stereo not drawn)	7.17
CCc1cccc2cccc(N3CCc4c(nc(OCC56CCCN5CCC6)nc4Nc4cccnc4)C3)c12	5.12
CCc1cccc2cccc(N3CCc4c(nc(OCC56CCCN5CCC6)nc4N4CCCCCC(S(C)(=O)=O)C4)C3)c12 (stereo not drawn)	6.95
CCc1cccc2cccc(N3CCc4c(nc(OCC56CCCN5CCC6)nc4N4CCOC(CC(N)=O)C4)C3)c12 (stereo not drawn)	5.86
CCc1cccc2cccc(N3CCc4c(nc(OCC56CCCN5CCC6)nc4N4CCCC(c5nnc(CO)n5C)C4)C3)c12 (stereo not drawn)	5.14

Provide the reported pIC50 of each entry below, same order.
1. CCc1c(F)ccc2cc(O)cc(N3CCc4c(nc(OC[C@@]56CCCN5C[C@H](F)C6)nc4N4CC5CC(O)C5C4)C3)c12 (stereo partly drawn)
2. CCc1cccc2cccc(N3CCc4c(nc(OCC56CCCN5CCC6)nc4N4CCCC(c5nc(N)n(C)n5)C4)C3)c12 (stereo not drawn)
3. CCc1cccc2cccc(N3CCc4c(nc(OCC56CCCN5CCC6)nc4N4CCCCCCC4)C3)c12
4. CCc1cccc2cccc(N3CCc4c(nc(OCC56CCCN5CCC6)nc4N4CCCC(c5nnc6n5CCC6)C4)C3)c12 (stereo not drawn)
5. O=C1NCC12CCCN(c1nc(OC[C@@]34CCCN3C[C@H](F)C4)nc3c1CCN(c1cc(O)cc4ccc(F)c(Cl)c14)C3)C2 (stereo partly drawn)
6. CCc1cccc2cccc(N3CCc4c(nc(OCC56CCCN5CCC6)nc4N4CC(O)C(O)C(O)C4)C3)c12 (stereo not drawn)

Response line:
[8.05, 6.54, 6.15, 5.89, 7.82, 6.26]

----------
- measurement-target: KRas^Q61H (Homo sapiens, UniProt P01116, Q61H)
- Sequence (P01116 1-169 isoform P01116-2 Q61H): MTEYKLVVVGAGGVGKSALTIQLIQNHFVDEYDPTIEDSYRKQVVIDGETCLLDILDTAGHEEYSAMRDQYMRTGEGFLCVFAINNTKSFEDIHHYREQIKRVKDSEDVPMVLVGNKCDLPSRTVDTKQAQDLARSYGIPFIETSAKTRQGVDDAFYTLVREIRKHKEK
- measurement-description: biochemical
reported-metric: IC50

Example entries and their recorded answers appear below.
compound	reported-metric	result
CCc1cccc2cccc(N3CCc4c(nc(OCC56CCCN5CCC6)nc4N4CCCC(c5n[nH]cc5NC(C)=O)C4)C3)c12 (stereo not shown)	IC50	1250 nM
CCc1cccc2cccc(N3CCc4c(nc(OCC56CCCN5CCC6)nc4NCc4nnc(CSC)[nH]4)C3)c12	IC50	21300 nM
CCc1cccc2cccc(N3CCc4c(nc(OCC56CCCN5CCC6)nc4N4CCOCC(O)C4)C3)c12 (stereo not shown)	IC50	132 nM
CCc1cccc2cccc(N3CCc4c(nc(OCC56CCCN5CCC6)nc4N4CCCn5nccc5C4)C3)c12	IC50	1930 nM
CCc1cccc2cccc(N3CCc4c(nc(OCC56CCCN5CCC6)nc4N4CCCCC(C)C4)C3)c12 (stereo not shown)	IC50	778 nM
CCc1cccc2cccc(N3CCc4c(nc(OCC56CCCN5CCC6)nc4N4CCCC(N5CCCC5=O)C4)C3)c12 (stereo not shown)	IC50	1470 nM
CCc1cccc2cccc(N3CCc4c(nc(OCC56CCCN5CCC6)nc4N4CCCC(P(C)(C)=O)C4)C3)c12 (stereo not shown)	IC50	64 nM
CCc1cccc2cccc(N3CCc4c(nc(OCC56CCCN5CCC6)nc4N4CCOCC(n5cccn5)C4)C3)c12 (stereo not shown)	IC50	76 nM
CCc1c(F)ccc2cc(O)cc(N3CCc4c(nc(OC[C@@]56CCCN5C[C@H](F)C6)nc4N4CCCC(c5ncn[nH]5)C4)C3)c12 (stereo partly shown)	IC50	9 nM
CCc1cccc2cccc(N3CCc4c(nc(OCC56CCCN5CCC6)nc4N4CCC(OCC(N)=O)CC4)C3)c12	IC50	929 nM

Provide the reported IC50 of each entry below, same order.
1. CCc1cccc2cccc(N3CCc4c(nc(OCC56CCCN5CCC6)nc4N4CCCC(O)(C(F)(F)F)C4)C3)c12 (stereo not shown)
2. CCc1cccc2cccc(N3CCc4c(nc(OCC56CCCN5CCC6)nc4Nc4cnn(CC(N)=O)c4)C3)c12
3. CCc1cccc2cccc(N3CCc4c(nc(OCC56CCCN5CCC6)nc4N4CCC(c5[nH]ncc5N)C4)C3)c12 (stereo not shown)
4. CCc1cccc2cccc(N3CCc4c(nc(OCC56CCCN5CCC6)nc4N4CCC(O)CC(C)C4)C3)c12 (stereo not shown)

Response line:
1. 491 nM
2. 4580 nM
3. 2230 nM
4. 325 nM

Provide the reported IC50 of each entry below, same order.
1. CCc1cccc2cccc(N3CCc4c(nc(OCC56CCCN5CCC6)nc4N4CCCN(C(N)=O)CC4)C3)c12
2. CCc1cccc2cccc(N3CCc4c(nc(OCC56CCCN5CCC6)nc4N4CCCC(n5ccc(C)n5)C4)C3)c12 (stereo not shown)
3. CCc1cccc2cccc(N3CCc4c(nc(OCC56CCCN5CCC6)nc4N4CCCC5(C4)NC(=O)NC5=O)C3)c12 (stereo not shown)
4. CCc1cccc2cccc(N3CCc4c(nc(OCC56CCCN5CCC6)nc4N4CC[C@H]5C(=O)NC[C@H]5C4)C3)c12
5. CCc1cccc2cccc(N3CCc4c(nc(OCC56CCCN5CCC6)nc4NCc4nnc(N)o4)C3)c12

Response line:
["343 nM", "757 nM", "≤ 2 nM", "1610 nM", "2300 nM"]
